tested system: GCS enzyme contained within Golgi preparations isolated from human A375 malignant melanoma skin cells (Homo sapiens)
Construct: endogenous levels of GCS enzyme contained within Golgi preparations isolated from human A375 malignant melanoma skin cells; endogenous in cells
assay procedure: UDP-Glo glucosylceramide synthase biochemical assay
condition context: crude Golgi preparation from A375 cells; C6 ceramide and UDP-glucose substrates; 20 h incubation at room temperature; UDP detected by luminescence
readout: EC50 (nM)

- molecule: "COc1ccc2ncc(F)c(C(=O)Nc3cccc4c3C(=O)N(CC3CC3)C4)c2n1 [Compound 135]"
  EC50 / nM: 64
- molecule: "CC(C)(O)C(C1CC1)N1Cc2cccc(NC(=O)c3ccnc4c3OCCO4)c2C1=O (single isomer, unassigned) [Compound 163]"
  EC50 / nM: 61

a = CC(C)(O)[C@@H](C1CC1)N1Cc2cccc(-c3ccc(-c4cnsc4)cc3)c2C1=O [Compound 95]
b = C[C@@H](C1CC1)N1Cc2cccc(NC(=O)c3ccnc4c3CCC4)c2C1=O [Compound 140]
### Prompt Parameter metric = EC50. Return the lower-valued option from a and b . Your choice should be expressed through its label.
### Response a

###

tested system: GCS enzyme contained within Golgi preparations isolated from human A375 malignant melanoma skin cells (Homo sapiens, UniProt Q16739)
Construct: endogenous levels of GCS enzyme contained within Golgi preparations isolated from human A375 malignant melanoma skin cells; endogenous in cells
Sequence (Q16739 whole entry): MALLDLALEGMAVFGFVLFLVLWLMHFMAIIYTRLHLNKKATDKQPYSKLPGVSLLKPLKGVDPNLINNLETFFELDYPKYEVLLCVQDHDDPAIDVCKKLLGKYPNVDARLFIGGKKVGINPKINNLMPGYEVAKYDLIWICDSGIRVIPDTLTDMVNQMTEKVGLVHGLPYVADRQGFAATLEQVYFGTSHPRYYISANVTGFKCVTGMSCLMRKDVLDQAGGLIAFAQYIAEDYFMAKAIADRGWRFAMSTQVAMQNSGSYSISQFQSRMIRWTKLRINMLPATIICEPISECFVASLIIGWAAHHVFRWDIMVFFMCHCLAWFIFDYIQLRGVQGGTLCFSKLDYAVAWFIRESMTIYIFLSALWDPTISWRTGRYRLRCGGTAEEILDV
assay procedure: UDP-Glo glucosylceramide synthase biochemical assay
condition context: crude Golgi preparation from A375 cells; C6 ceramide and UDP-glucose substrates; 20 h incubation at room temperature; UDP detected by luminescence
pEC50: −log10 of the molar value.
readout: pEC50

- compound: "Cc1cnc2c(c1/C=C/c1cccc3c1C(=O)N(C(C1CC1)C(C)(C)O)C3)OCO2 (single isomer, unassigned)"
  measured result: 7.57

a = CC(C)(O)[C@@H](C1CC1)N1Cc2cccc(-c3cc(Cl)cc(C#N)n3)c2C1=O
b = O=C(Nc1cccc2c1C(=O)N(CC1CC1)C2)c1c(Cl)cncc1Cl
### Prompt Sort a and b by pEC50 descending and give the first. Your choice should be expressed through its label.
### Response a

The reported numbers originate from patent US12679807B2.
